Just for reference, patent US20070149446A1 is where these values come from.

- System: A549
- METHOD_DESCRIPTION: SRB colorimetric cell growth inhibition assay, A549
- CONDITION_DETAILS: read-out: LC50; A549 cells; cell killing; SRB, 48 hours exposure
Starred links: 1 amine or outer side, 2 acyl side, 3 side chain; linkers in the order of their positions; H or OH if unused. Positions of bridges follow the written chain, without caps; N, C: chain ends. Non-standard residues stand in square brackets, D forms with d. Residues, ends and D or L forms follow the SMILES beside them. Hexanoyl(3S-OH,4R-NH2,5-Me) = CC(C)[C@@H](N[*:1])[C@@H](O)CC(=O)[*:2]; NMeY = CN[C@@H](Cc1ccc(O)cc1)C(=O)O; NMeF = CN[C@@H](Cc1ccccc1)C(=O)O; dNMeL = CN[C@H](CC(C)C)C(=O)O; Hiv = CC(C)[C@H](O)C(=O)O; Lac = C[C@H](O)C(=O)O
MEASURE: CC50 (nM)
The reply should contain only the number, in nM.

CC50 reported for this molecule CC(C)C[C@@H]1NC(=O)[C@H](C(C)C)OC(=O)C[C@H](O)[C@@H](C(C)C)NC(=O)[C@@H](NC(=O)[C@@H](CC(C)C)N(C)C(=O)[C@@H]2CCCN2C(=O)[C@H](C)O)[C@@H](C)OC(=O)[C@H](Cc2ccccc2)N(C)C(=O)[C@@H]2CCCN2C1=O [Phe^5 tamandarin B, [N-MePhe^5]-Tamandarin B] (H-[Lac]P[dNMeL]T[Hexanoyl(3S-OH,4R-NH2,5-Me)][Hiv]LP[NMeF]; ester 4-C) : 935

CC50 reported for this molecule COc1ccc(C[C@H]2C(=O)O[C@H](C)[C@H](NC(=O)[C@@H](CC(C)C)N(C)C(=O)[C@@H]3CCCN3C(=O)[C@H](C)O)C(=O)N[C@H](C(C)C)[C@@H](O)CC(=O)O[C@@H](C(C)C)C(=O)N[C@@H](CC(C)C)C(=O)N3CCC[C@H]3C(=O)N2C)cc1 [tamandarin B, Tamandarin B, reference compound] (H-[Lac]P[dNMeL]T[Hexanoyl(3S-OH,4R-NH2,5-Me)][Hiv]LP[NMeY](Me); ester 4-C) : 766

----------
- Test system: IGROV
- METHOD_DESCRIPTION: SRB colorimetric cell growth inhibition assay, IGROV
- CONDITION_DETAILS: IGROV cells; total growth inhibition; SRB, 48 hours exposure
Starred links: 1 amine or outer side, 2 acyl side, 3 side chain; linkers in the order of their positions; H or OH if unused. Positions of bridges follow the written chain, without caps; N, C: chain ends. Non-standard residues stand in square brackets, D forms with d. Residues, ends and D or L forms follow the SMILES beside them. Hexanoyl(3S-OH,4R-NH2,5-Me) = CC(C)[C@@H](N[*:1])[C@@H](O)CC(=O)[*:2]; NMe2Nal = CN[C@@H](Cc1ccc2ccccc2c1)C(=O)O; NMeY = CN[C@@H](Cc1ccc(O)cc1)C(=O)O; NMeF = CN[C@@H](Cc1ccccc1)C(=O)O; dNMeL = CN[C@H](CC(C)C)C(=O)O; Hiv = CC(C)[C@H](O)C(=O)O; Lac = C[C@H](O)C(=O)O
MEASURE: TGI (Molar)
The reply should contain only the number, in Molar.

Some molecules with known TGI results, for comparison:
# MOLECULE, TEST_SYSTEM, UNIT_TAG, TGI
records = [
    ("COc1ccc(C[C@H]2C(=O)O[C@H](C)[C@H](NC(=O)[C@@H](CC(C)C)N(C)C(=O)[C@@H]3CCCN3C(=O)[C@H](C)O)C(=O)N[C@H](C(C)C)[C@@H](O)CC(=O)O[C@@H](C(C)C)C(=O)N[C@@H](CC(C)C)C(=O)N3CCC[C@H]3C(=O)N2C)cc1 [tamandarin B, Tamandarin B, reference compound] (H-[Lac]P[dNMeL]T[Hexanoyl(3S-OH,4R-NH2,5-Me)][Hiv]LP[NMeY](Me); ester 4-C)", "IGROV", "Molar", "2.91E−08"),
    ("CC(C)C[C@@H]1NC(=O)[C@H](C(C)C)OC(=O)C[C@H](O)[C@@H](C(C)C)NC(=O)[C@@H](NC(=O)[C@@H](CC(C)C)N(C)C(=O)[C@@H]2CCCN2C(=O)[C@H](C)O)[C@@H](C)OC(=O)[C@H](Cc2ccc3ccccc3c2)N(C)C(=O)[C@@H]2CCCN2C1=O [Compound 93, [2-Naphthylala^5]-Tamandarin B] (H-[Lac]P[dNMeL]T[Hexanoyl(3S-OH,4R-NH2,5-Me)][Hiv]LP[NMe2Nal]; ester 4-C)", "IGROV", "Molar", "1.28E−08"),
    ("COc1ccc(C[C@H]2C(=O)O[C@H](C)[C@H](NC(=O)[C@@H](CC(C)C)N(C)C(=O)[C@@H]3CCCN3C(=O)[C@H](C)O)C(=O)N[C@H](C(C)C)[C@@H](O)CC(=O)O[C@@H](C(C)C)C(=O)N[C@@H](CC(C)C)C(=O)N[C@@H](C)C(=O)N2C)cc1 [Compound 75, [N-Ala^4]-Tamandarin B] (H-[Lac]P[dNMeL]T[Hexanoyl(3S-OH,4R-NH2,5-Me)][Hiv]LA[NMeY](Me); ester 4-C)", "IGROV", "Molar", "5.29E−06"),
    ("CC(C)C[C@@H]1NC(=O)[C@H](C(C)C)OC(=O)C[C@H](O)[C@@H](C(C)C)NC(=O)[C@@H](NC(=O)[C@@H](CC(C)C)N(C)C(=O)[C@@H]2CCCN2C(=O)[C@H](C)O)[C@@H](C)OC(=O)[C@H](Cc2ccccc2)N(C)C(=O)[C@@H]2CCCN2C1=O [Phe^5 tamandarin B, [N-MePhe^5]-Tamandarin B] (H-[Lac]P[dNMeL]T[Hexanoyl(3S-OH,4R-NH2,5-Me)][Hiv]LP[NMeF]; ester 4-C)", "IGROV", "Molar", "1.28E−08"),
]

TGI reported for this molecule COc1ccc(C[C@H]2C(=O)OC[C@H](NC(=O)[C@@H](CC(C)C)N(C)C(=O)[C@@H]3CCCN3C(=O)[C@H](C)O)C(=O)N[C@H](C(C)C)[C@@H](O)CC(=O)O[C@@H](C(C)C)C(=O)N[C@@H](CC(C)C)C(=O)N3CCC[C@H]3C(=O)N2C)cc1 [Compound 62, [N-Ser^6]-Tamandarin B] (H-[Lac]P[dNMeL]S[Hexanoyl(3S-OH,4R-NH2,5-Me)][Hiv]LP[NMeY](Me); ester 4-C) : 5.29E−06
